Assay Method Text: Solubility of compound in 0.1 M HCl
Format: physicochemical
Experimental Setup: read-out: S
Assay Metric: solubility (µg/mL)
One number for each entry, in µg/mL.

Exercise: Which measured solubility value corresponds to COc1cc([C@H]2CN=C(c3ccc4c(ccn4C)c3)O2)cc(OC)c1OC ?
Solution: 1270

* * *

System: A549
Assay Method Text: Activity against human lung cancer with mutated beta-tubulin (A549-T2415)
Format: functional, cell-based
Assay Metric: pIC50
Give bare numbers, as −log10 of the molar value.

Exercise: Name the recorded pIC50 for COc1cc([C@H]2CN=C(c3ccc4c(ccn4C)c3)O2)cc(OC)c1OC .
Solution: 8.20

* * *

Study Target: Tubulin beta chain (Bos taurus)
Sequence (Q6B856 whole entry): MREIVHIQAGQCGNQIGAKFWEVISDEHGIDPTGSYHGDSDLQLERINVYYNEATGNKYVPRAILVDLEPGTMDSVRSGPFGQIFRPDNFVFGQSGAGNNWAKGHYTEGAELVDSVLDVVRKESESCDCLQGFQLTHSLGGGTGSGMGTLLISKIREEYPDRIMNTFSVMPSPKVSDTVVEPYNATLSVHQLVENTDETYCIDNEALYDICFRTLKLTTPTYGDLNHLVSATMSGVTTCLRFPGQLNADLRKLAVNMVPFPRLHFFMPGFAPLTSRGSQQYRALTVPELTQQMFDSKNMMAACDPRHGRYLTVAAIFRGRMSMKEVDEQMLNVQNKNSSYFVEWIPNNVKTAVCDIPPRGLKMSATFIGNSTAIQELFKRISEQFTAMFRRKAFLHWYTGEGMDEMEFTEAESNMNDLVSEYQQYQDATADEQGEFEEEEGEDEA
Assay Method Text: Activity towards binding at colchicine site of bovine brain tubulin
Assay Metric: pIC50
One number for each entry, as −log10 of the molar value.

Exercise: Consider the compound shown here: COc1cc(C2OC(c3ccc(N)c(C)c3)=NN2C(C)=O)cc(OC)c1OC (stereo unspecified) What is its recorded pIC50?
Solution: 5.47

* * *

Assay Method Text: Half life period in monkey after 5 mg/kg dose
Type: ADME, organism-based
Set-up: dose 5 mg/kg
Experimental Setup: cercopithecidae, in vivo
So I've got a bunch of compounds here, and I need their half-life values.
Numbers only, in min.

[[record]]
structure_as_smiles = "COc1cc([C@H]2CN=C(c3ccc4c(ccn4C)c3)O2)cc(OC)c1OC"
assay_metric = "half-life"
value_unit = "min"
readout_value = 78


Next:
Exercise: Field request: half-life | item: COc1cc([C@@H]2CN=C(c3ccc4c(ccn4C)c3)O2)cc(OC)c1OC
Solution: 84

* * *

Assay Method Text: Oral bioavailability in dog (dose 5 mg/kg)
Format: ADME, organism-based, Canis lupus familiaris
Experimental Setup: in vivo
Assay Metric: bioavailability (%)
Give bare numbers, in %.

[[record]]
structure_as_smiles = "COc1cc([C@H]2CN=C(c3ccc4c(ccn4C)c3)O2)cc(OC)c1OC"
assay_metric = "bioavailability"
readout_value = 6.5


Let us move to another entry and its bioavailability.
Exercise: Value lookup for bioavailability; key = COc1cc([C@@H]2CN=C(c3ccc4c(ccn4C)c3)O2)cc(OC)c1OC
Solution: 7

* * *

Assay Method Text: Oral bioavailability in rat (dose single 10 mg/kg)
Assay type: ADME, organism-based
Experimental Setup: in vivo
Classification field: enter label 1 for bioavailability values not below 30%, label 0 for values below it.

Exercise: Is bioavailability for COc1cc(C2CN=C(c3cc4ccccc4[nH]3)O2)cc(OC)c1OC (centres undefined) at or above 30%?
Solution: label 1

Exercise: Another molecule to look at: COc1cc(C2CN=C(c3c[nH]c4ccccc34)O2)cc(OC)c1OC (centres undefined)
Solution: label 0

Exercise: // repeat for COc1cc(C2CN=C(c3cn(C)c4ccccc34)O2)cc(OC)c1OC (centres undefined) and report
Solution: label 0

Exercise: What would you report for COc1cc(C2CN=C(c3ccc4c(ccn4C)c3)O2)cc(OC)c1OC (centres undefined) ?
Solution: label 1

Exercise: And then COc1cc(C2CN=C(c3cccc4cc[nH]c34)O2)cc(OC)c1OC (centres undefined) , what is it?
Solution: label 0

Exercise: // next record COc1cc(C2CN=C(c3ccc4[nH]ccc4c3)O2)cc(OC)c1OC (centres undefined)
Solution: label 1

Exercise: COc1cc(C2CN=C(c3ccc4cc[nH]c4c3)O2)cc(OC)c1OC (centres undefined) , same question.
Solution: label 0

Exercise: Same question, COc1cc(C2CN=C(c3ccc4ccn(C)c4c3)O2)cc(OC)c1OC (centres undefined) this time
Solution: label 0

Exercise: Lookup COc1cc(C2CN=C(c3ccc4c(ccn4C4CC4)c3)O2)cc(OC)c1OC (centres undefined)
Solution: label 1

Exercise: Then COc1cc(C2CN=C(c3ccc4c(ccn4CC(F)(F)F)c3)O2)cc(OC)c1OC (centres undefined) ?
Solution: label 0

* * *

Assay Method Text: Half life period in mouse after 10 mg/Kg dose
Assay type: ADME, organism-based
Experimental Setup: in vivo
Assay Metric: half-life
Quick note: number first, unit second.

Exercise: Query: half-life; subject: COc1cc([C@@H]2CN=C(c3ccc4c(ccn4C)c3)O2)cc(OC)c1OC
Solution: 1.3 h

* * *

Assay Method Text: Half life period in dog after 5 mg/kg dose
Assay type: ADME, organism-based, Canis lupus familiaris
Parameters: dose 5 mg/kg
Experimental Setup: in vivo
Assay Metric: half-life (h)
One number for each entry, in h.

[[record]]
structure_as_smiles = "COc1cc([C@@H]2CN=C(c3ccc4c(ccn4C)c3)O2)cc(OC)c1OC"
readout_value = 2.9


We next turn to a different compound, shown below.
Exercise: I am curious: what half-life value has been reported for COc1cc([C@H]2CN=C(c3ccc4c(ccn4C)c3)O2)cc(OC)c1OC ?
Solution: 3.3

* * *

Assay Method Text: Partition coefficient of compound
Assay type: physicochemical
Experimental Setup: octanol/water
Assay Metric: logD

Exercise: Dear colleague, I am looking for the recorded logD of the following compound: COc1cc([C@H]2CN=C(c3ccc4c(ccn4C)c3)O2)cc(OC)c1OC
Solution: 3.94

* * *

Assay Method Text: Oral bioavailability in rat (dose single 10 mg/kg)
Type: ADME, organism-based
Experimental Setup: in vivo
Assay Metric: bioavailability (%)
One number for each entry, in %.

Completed entries (count: 3):
[[record]]
compound = "COc1cc(C2CN=C(c3cccc4c3ccn4C)O2)cc(OC)c1OC (centres undefined)"
readout_value = 2.5

[[record]]
compound = "CCn1ccc2cc(C3=NCC(c4cc(OC)c(OC)c(OC)c4)O3)ccc21 (centres undefined)"
readout_value = 11.1

[[record]]
compound = "COCn1ccc2cc(C3=NCC(c4cc(OC)c(OC)c(OC)c4)O3)ccc21 (centres undefined)"
readout_value = 34.3


Now for a further compound.
Exercise: Form field: reported bioavailability of COc1cc(C2CN=C(c3cccc4[nH]ccc34)O2)cc(OC)c1OC (centres undefined)
Solution: 0
